Origin of values: ChEMBL document CHEMBL4359893

CC50 at 72 h reference
Test: Cytotoxicity against African green monkey Vero cells assessed as reduction in cell viability by measuring ATP level after 72 hrs by Celltiter-Glo assay
Assay type: cell-based
Details: chlorocebus sabaeus

Smiles | Measured Value
O=C(Cn1ccnc1[N+](=O)[O-])NCc1ccccc1 | > 500 µM

Reported CC50 at 72 h ( "Nc1c(C2=NCCN2)cnn1-c1cccc(Br)c1" ) = 352 µM

Reported CC50 at 72 h ( "Nc1c(C2=NCCCN2)cnn1-c1ccc(F)cc1" ) = > 500 µM

Reported CC50 at 72 h ( "Nc1c(C2=NCCCN2)cnn1-c1ccc(Cl)c(Cl)c1" ) = > 500 µM

Reported CC50 at 72 h ( "Nc1c(C2=NCCCN2)cnn1-c1ccc(Br)cc1" ) = > 500 µM

Reported CC50 at 72 h ( "Nc1c(C2=NCCCN2)cnn1-c1ccc(Cl)cc1" ) = > 500 µM

Reported CC50 at 72 h ( "Nc1c(C2=NCCN2)cnn1-c1cccc(Cl)c1" ) = > 500 µM

Reported CC50 at 72 h ( "Nc1c(C2=NCCN2)cnn1-c1ccccc1" ) = > 500 µM

Reported CC50 at 72 h ( "Nc1c(C2=NCCCN2)cnn1-c1cccc(Br)c1" ) = > 500 µM

Reported CC50 at 72 h ( "COc1ccc(-n2ncc(C3=NCCCN3)c2N)cc1" ) = > 500 µM

Reported CC50 at 72 h ( "Nc1c(C2=NCCN2)cnn1-c1ccc(Br)cc1" ) = > 500 µM

Reported CC50 at 72 h ( "Nc1c(C2=NCCN2)cnn1-c1cc(Cl)cc(Cl)c1" ) = 257 µM
